target: Low molecular weight phosphotyrosine protein phosphatase (Homo sapiens); assay: inhibition of human LMPTP-A enzyme – biochemical, fluorescence intensity, uHTS, primary screen (AID 651560); settings: recombinant LMPTP-A, OMFP fluorogenic substrate, at 20 µM;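 also: plate controls were DMSO wells with enzyme plus substrate for no effect and substrate without enzyme for full effect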
Among all 360,000 compounds or so, about 820 (0.23%) were called active.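 The calls were made as follows: active = compounds that cut the enzyme signal by at least half of the control window in the single-dose screen; inactive = the rest.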 The sample holds actives, similar compounds and a random draw of the others, so the mix is not that of the screen.
A correct response names exactly one class from yes (1) for active, no (0) for inactive

Please review the entries below; each comes with its answer.
>>> qualitative_label("O=C(COC(=O)C1CCCCC1)Nc1ccc([N+](=O)[O-])cc1")
"no (0)"
>>> qualitative_label("O=C(COc1ccc(/C=N/NC(=O)c2ccc(O)cc2)cc1)Nc1ccc([N+](=O)[O-])cc1")
"yes (1)"
>>> qualitative_label("O=c1cc(CO)oc(C(Nc2cccc([N+](=O)[O-])c2)c2ccccn2)c1O (centres undefined)")
"no (0)"
>>> qualitative_label("Nc1ccc2nc3c(=O)[nH]c(=S)[nH]c3nc2c1")
"yes (1)"
>>> qualitative_label("O=C(c1ccccc1)c1ccc2nc(N3CCCCC3)c3nncn3c2c1")
"no (0)"

### Prompt Status in this test for `Cc1ccccc1NC(=O)Cc1nc(COC(=O)CNC(=O)c2ccc(Cl)cc2Cl)cs1` ?
### Response no (0)

### Prompt Same again, this time with Cn1c(C(=O)OC(C(=O)NC2CCCCC2)c2ccccn2)cc2sccc21 (centres undefined)
### Response no (0)

### Prompt Same again, this time with `Cc1c(Nc2nc3ccccc3nc2NS(=O)(=O)c2cccs2)c(=O)n(-c2ccccc2)n1C`
### Response no (0)

### Prompt Same again, this time with Cc1cc(F)ccc1NC(=O)C(C)n1c2ccccc2c2nc(=O)cc(C)n21 (centres undefined)
### Response no (0)
